# condition.description: in PEG-400, 308.2 K
parameter: solubility (mole fraction)

INSERT INTO assay_data (smiles_representation, observed_result) VALUES
  ('O=C(/C=C/C=C/c1ccc2c(c1)OCO2)N1CCCCC1', 0.0652);

---

# condition.description: in n-butanol, 313.2 K
parameter: solubility (mole fraction)

INSERT INTO assay_data (smiles_representation, observed_result) VALUES
  ('O=C(/C=C/C=C/c1ccc2c(c1)OCO2)N1CCCCC1', 0.0201);

---

# condition.description: in DMSO, 303.2 K
parameter: solubility (mole fraction)

INSERT INTO results (smiles_representation, observed_result) VALUES
  ('O=C(/C=C/C=C/c1ccc2c(c1)OCO2)N1CCCCC1', 0.0303);

---

# condition.description: in sec-butanol, 308.2 K
parameter: solubility (mole fraction)

INSERT INTO assay_data (smiles_representation, observed_result) VALUES
  ('O=C(/C=C/C=C/c1ccc2c(c1)OCO2)N1CCCCC1', 0.0187);

---

# condition.description: in sec-butanol, 298.2 K
parameter: solubility (mole fraction)

INSERT INTO results (smiles_representation, observed_result) VALUES
  ('O=C(/C=C/C=C/c1ccc2c(c1)OCO2)N1CCCCC1', 0.0158);

---

# condition.description: in propylene glycol, 308.2 K
parameter: solubility (mole fraction)

INSERT INTO assay_data (smiles_representation, observed_result) VALUES
  ('O=C(/C=C/C=C/c1ccc2c(c1)OCO2)N1CCCCC1', 0.0122);

---

# condition.description: in ethyl acetate, 313.2 K
parameter: solubility (mole fraction)

INSERT INTO measurements (smiles_representation, observed_result) VALUES
  ('O=C(/C=C/C=C/c1ccc2c(c1)OCO2)N1CCCCC1', 0.0137);

---

# condition.description: in PEG-400, 303.2 K
parameter: solubility (mole fraction)

INSERT INTO assay_data (smiles_representation, observed_result) VALUES
  ('O=C(/C=C/C=C/c1ccc2c(c1)OCO2)N1CCCCC1', 0.0584);

---

# condition.description: in PEG-400, 298.2 K
parameter: solubility (mole fraction)

INSERT INTO assay_data (smiles_representation, observed_result) VALUES
  ('O=C(/C=C/C=C/c1ccc2c(c1)OCO2)N1CCCCC1', 0.0518);

---

# condition.description: in sec-butanol, 318.2 K
parameter: solubility (mole fraction)

INSERT INTO measurements (smiles_representation, observed_result) VALUES
  ('O=C(/C=C/C=C/c1ccc2c(c1)OCO2)N1CCCCC1', 0.0225);

---

# condition.description: in methanol, 303.2 K
parameter: solubility (mole fraction)

INSERT INTO results (smiles_representation, parameter, observed_result) VALUES
  ('O=C(/C=C/C=C/c1ccc2c(c1)OCO2)N1CCCCC1', 'solubility (mole fraction)', 0.00584);

---

# condition.description: in PEG-400, 313.2 K
parameter: solubility (mole fraction)

INSERT INTO assay_data (smiles_representation, observed_result) VALUES
  ('O=C(/C=C/C=C/c1ccc2c(c1)OCO2)N1CCCCC1', 0.0718);

---

# condition.description: in ethylene glycol, 303.2 K
parameter: solubility (mole fraction)

INSERT INTO measurements (smiles_representation, observed_result) VALUES
  ('O=C(/C=C/C=C/c1ccc2c(c1)OCO2)N1CCCCC1', 0.00444);

All figures here come from BigSolDB 2.1.
